These measurements were taken from ChEMBL document CHEMBL1147203.

molecular target: Carbonic anhydrase 5B, mitochondrial (Homo sapiens, UniProt Q9Y2D0); assay: Inhibition of human recombinant CA5B by CO2 hydration assay
Sequence (Q9Y2D0 whole entry): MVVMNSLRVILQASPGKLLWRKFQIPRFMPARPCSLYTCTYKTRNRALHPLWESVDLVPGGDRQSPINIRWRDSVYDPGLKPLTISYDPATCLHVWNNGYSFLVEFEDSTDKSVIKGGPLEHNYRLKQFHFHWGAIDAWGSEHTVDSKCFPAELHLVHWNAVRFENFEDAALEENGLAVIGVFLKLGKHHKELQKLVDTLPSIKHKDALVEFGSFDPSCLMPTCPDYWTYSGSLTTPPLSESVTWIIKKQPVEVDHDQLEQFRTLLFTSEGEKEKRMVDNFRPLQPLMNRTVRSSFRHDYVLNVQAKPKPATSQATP
Attribute Measured: Ki (mM)
Please state the figure in mM; there is no need to write the unit.

## Input Which Ki value belongs to O=C(O)P(=O)(O)O [FOSCARNET SODIUM] ?
## Output 11.8

====

molecular target: Carbonic anhydrase 12 (Homo sapiens, UniProt O43570); test: Inhibition of human recombinant CA12 by CO2 hydration assay
Sequence (O43570 whole entry): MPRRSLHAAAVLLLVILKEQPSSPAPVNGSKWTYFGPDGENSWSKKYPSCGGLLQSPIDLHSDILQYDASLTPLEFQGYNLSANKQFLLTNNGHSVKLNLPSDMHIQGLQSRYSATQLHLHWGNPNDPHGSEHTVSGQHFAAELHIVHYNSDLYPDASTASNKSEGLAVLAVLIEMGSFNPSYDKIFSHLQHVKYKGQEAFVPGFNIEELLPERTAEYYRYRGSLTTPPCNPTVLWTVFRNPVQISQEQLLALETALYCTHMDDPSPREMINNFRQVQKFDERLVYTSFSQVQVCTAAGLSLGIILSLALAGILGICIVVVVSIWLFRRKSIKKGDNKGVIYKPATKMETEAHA
Attribute Measured: Ki (mM)
Please state the figure in mM; there is no need to write the unit.

## Input Which Ki value belongs to O=C(O)P(=O)(O)O [FOSCARNET SODIUM] ?
## Output 1.29

====

target: Carbonic anhydrase 14 (Homo sapiens); test: Inhibition of human recombinant CA14 by CO2 hydration assay
Sequence (Q9ULX7 whole entry): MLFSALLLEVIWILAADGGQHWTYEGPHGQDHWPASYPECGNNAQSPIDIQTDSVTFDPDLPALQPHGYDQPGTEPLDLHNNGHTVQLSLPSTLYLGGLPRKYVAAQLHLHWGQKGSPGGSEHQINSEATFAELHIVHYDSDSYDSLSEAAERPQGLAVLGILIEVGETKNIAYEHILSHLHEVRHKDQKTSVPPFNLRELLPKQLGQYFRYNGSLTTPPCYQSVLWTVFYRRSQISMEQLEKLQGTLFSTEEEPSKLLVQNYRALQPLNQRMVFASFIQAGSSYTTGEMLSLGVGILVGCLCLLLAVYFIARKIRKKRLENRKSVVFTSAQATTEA
Attribute Measured: pKi
Formally, pKi is defined as -log10 of the concentration c, with c in mol/L.

## Input Which pKi value belongs to O=C(O)P(=O)(O)O [FOSCARNET SODIUM] ?
## Output 2.44
